- Tested on: CAKI-1
- ASSAY: NCI tumour cell line growth inhibition, 48 h
Calls of active or inactive are those of the source. Rule as the data show it: active = GI50 up to about 1.1 µM and inactive = higher.
Can you tell me GI50 for the items I'm about to list?

* Cc1noc(NS(=O)(=O)c2ccc(NC(=O)c3ccc4[nH]c5ccccc5c(=O)c4c3)cc2)c1C | > 100 µM (inactive)
* CC(=O)O[C@H]1CC[C@@]2(C)C(=CC[C@@H]3[C@@H]2CC[C@]2(C)c4nc(N)c(C#N)cc4C[C@@H]32)C1 | > 100 µM (inactive)
* CCc1cccc(C(C)CC)c1NC(=O)C(=O)C(CC(=O)Nc1ccc(Cl)c(Cl)c1)C(=O)OC (stereo unspecified) | 19.5 µM (inactive)

Batch of 3 compounds: report GI50 for each.
1. c1ccc(CSC2(SCc3ccccc3)CCCC2)cc1
2. CCOc1ccc(NC(=O)CC2SC(Nc3ccc(Cl)cc3)=NC2=O)cc1 (stereo unspecified)
3. Nc1ccc(Cc2ccc(/N=C\c3ccc(OCc4cccc(COc5ccc(/C=N\c6ccc(Cc7ccc(N)cc7)cc6)cc5)n4)cc3)cc2)cc1

1. > 10 µM (inactive)
2. 21.5 µM (inactive)
3. > 100 µM (inactive)

For every record below, what is its GI50?
1. CC(=O)N/N=C1/CC[C@@]2(C)C(=CC[C@H]3C4CCC(C(C)CCCC(C)C)[C@@]4(C)CCC32)C1(C)C (stereo partly specified)
2. COc1ccc(N2C(=O)C3c4[nH]c5ccccc5c4C4C(C)CCCC4C3C2=O)cc1 (stereo unspecified)
3. CCCCCC(/C=C/C1CCC(=O)C1CC#C[Si](C)(C)C)OCc1ccccc1 (stereo unspecified)
4. O=C(O)CCC1(C(=O)O)CCC(=O)c2ccccc21 (stereo unspecified)

1: > 100 µM (inactive); 2: 36.1 µM (inactive); 3: 17.9 µM (inactive); 4: > 100 µM (inactive)

Field: GI50. Fill in for each record below.
1. c1ccc(C(NC2=NCCO2)c2ccccc2)cc1
2. O=c1c2cc3c(cc2c2cccc4c2n1CCC4)OCO3
3. CCOC(=O)[C@@H](NC(=O)OC(C)(C)C)[C@@H](O)C(=O)OCC
4. N#CC12CC3=C(N=C1NC1=C(CCc4ccccc41)C2)c1ccccc1CC3 (stereo unspecified)
5. COC(=O)c1c(C)cccc1C1CN=NC12Cc1c(C)cccc1C2=O (stereo unspecified)
6. COc1cc(/C=C/C2=NN(c3cccc(S(=O)(=O)O)c3)C3(C2)C(Cl)C(=O)N3c2nc3ccccc3s2)ccc1O (stereo unspecified)
7. O=C(Nc1ccc(Cl)cc1)NS(=O)(=O)c1coc2ccccc2c1=O

["> 10 µM (inactive)", "78.9 µM (inactive)", "> 100 µM (inactive)", "3.8 µM (inactive)", "> 100 µM (inactive)", "17 µM (inactive)", "> 10 µM (inactive)"]
